- target or test system: PD-L1 (Homo sapiens, UniProt Q9NZQ7)
- Construct: determine if they can specifically dimerize the extracellular domains of PD-L1
- Sequence (Q9NZQ7 19-238 limits assumed): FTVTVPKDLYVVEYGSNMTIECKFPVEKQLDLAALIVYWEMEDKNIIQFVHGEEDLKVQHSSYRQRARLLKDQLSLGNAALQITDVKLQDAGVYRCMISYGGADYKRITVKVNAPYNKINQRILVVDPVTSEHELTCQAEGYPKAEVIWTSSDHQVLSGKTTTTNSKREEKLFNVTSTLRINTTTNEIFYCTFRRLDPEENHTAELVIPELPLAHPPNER
- Sequence (Q9NZQ7 19-238 limits assumed): as above
- protocol details: PD-L1/PD-L1 dimerization biochemical protein-protein interaction assay (ALPHA)
- Format: binding
- condition label: compound-induced PD-L1 dimerization, head prints '1 nM' (0.5 nM His-tagged PD-L1 and 0.5 nM FLAG-tagged PD-L1), read-out: AC50 PDL1 Dimer Alpha 1 nM
# thresholds on AC50 define classes: lower bin (below 70 nM), middle bin (70 nM to below 200 nM), upper bin (200 nM or more)

Query block: Exercise: read the entry COc1nc(-c2cccc(-c3cccc(N4Cc5cc(CNC[C@@H]6CCC(=O)N6)ccc5C4=O)c3Cl)c2Cl)ccc1CNC[C@@H]1CCC(=O)N1 [Example 632] and state which class it falls under.
Result block: upper bin

Query block: Exercise: read the entry Cc1c(-c2ccc(CN3CC[C@@H](O)C3)cc2)cccc1-c1cccc(-c2ccc(CNC[C@@H](O)CC(=O)O)c(OCCCC#N)c2)c1C [Example 324] and state which class it falls under.
Result block: upper bin

Query block: Exercise: read the entry COc1nc(O[C@H]2CCc3c(-c4cccc(-c5ccc(CN6CC7(CCC(=O)N7)C6)cc5)c4Cl)cccc32)c(Cl)cc1CN1CC2(CCC(=O)N2)C1 [Example 773] and state which class it falls under.
Result block: upper bin

Query block: Exercise: read the entry Cc1c(COc2cc(OCc3cncc(C#N)c3)c(CNC[C@@H](O)CC(=O)O)cc2Cl)cccc1-c1cccc(-c2ccc(CCN3CCCC3)cc2)c1C [Example 300] and state which class it falls under.
Result block: upper bin

Query block: Exercise: read the entry N#Cc1cncc(COc2nc(O[C@H]3CCc4c(-c5cccc6c5CC[C@@H]6Oc5nc(OCc6cncc(C#N)c6)c(CNC[C@@H](O)CC(=O)O)cc5Br)cccc43)c(Br)cc2CNC[C@@H](O)CC(=O)O)c1 [Example 4] and state which class it falls under.
Result block: lower bin

Query block: Exercise: read the entry COc1nc(O[C@H]2CCc3c(-c4cccc(-c5ccc(CNC[C@@H]6CCC(=O)N6)cc5)c4Cl)cccc32)c(Cl)cc1CNC[C@@H](O)CC(=O)O [Example 732] and state which class it falls under.
Result block: lower bin

Query block: Exercise: read the entry C[C@@](CO)(NCc1cc(Cl)c(O[C@H]2CCc3c(-c4cccc5c4CC[C@@H]5Oc4nc(OCc5cncc(S(C)(=O)=O)c5)c(CN5CC[C@@H](O)C5)cc4Cl)cccc32)nc1OCc1cncc(S(C)(=O)=O)c1)C(=O)O [Example 688] and state which class it falls under.
Result block: middle bin

Query block: Exercise: read the entry Cc1c(COc2cc(OCc3cncc(C#N)c3)c(CN[C@@](C)(CO)C(=O)O)cc2Cl)cccc1-c1cccc(-c2ccc(C3CCCN3CCO)cc2)c1C (some centres unmarked) [Example 374] and state which class it falls under.
Result block: middle bin

Query block: Exercise: read the entry N#Cc1cncc(COc2cc(O[C@H]3CCc4c(-c5cccc(-c6nc7ccc(CNC[C@@H]8CCC(=O)N8)cn7n6)c5Cl)cccc43)c(Cl)cc2CNC[C@@H]2CCC(=O)N2)c1 [Example 802] and state which class it falls under.
Result block: lower bin

Query block: Exercise: read the entry Cc1c(COc2cc(OCc3cncc(C#N)c3)c(CN[C@H]3CCCC[C@@H]3O)cc2Cl)cccc1-c1cccc(-c2cccc(OCCNCCO)c2)c1C [Example 367] and state which class it falls under.
Result block: upper bin

Query block: Exercise: read the entry COc1nc(O[C@H]2CCc3c(-c4cccc(-c5cc(C)c(CNC[C@@H]6CCC(=O)N6)c(OC)n5)c4Cl)cccc32)c(Cl)cc1CN1CC[C@](C)(C(=O)O)C1 [Example 489] and state which class it falls under.
Result block: lower bin
